Sourced from patent US10654837B2

Target entity: UniProt P41595
Experimental protocol: 5HTR2B antagonist activity, calcium mobilization assay in human Maverick/293 cells (serotonin as agonist)
Conditions used: intracellular calcium, emission 525 nm, read-out: Ca assay IC50
Endpoint: IC50 (nM)

COc1ccc(S(=O)(=O)N[C@H]2CCOC2)cc1C(=O)Nc1nccs1 [Compound 64] ... 65
COc1ccc(S(=O)(=O)N[C@H]2CCOC2)cc1C(=O)Nc1ccc(F)c(Cl)c1F [Compound 77] ... 5.3
COc1ccc(S(=O)(=O)N[C@H]2CCOC2)cc1C(=O)Nc1ccncn1 [Compound 165] ... 511

A = COc1ccc(S(=O)(=O)NC(C)C)cc1C(=O)Nc1ccc(F)c(C)c1 [Compound 8]
B = CNS(=O)(=O)c1ccc(OC)c(C(=O)Nc2ccc(F)c(C)n2)c1 [Compound 24]
Exercise: Larger number for IC50: A , or B ? Write down the label attached to your selection.
Key: B

P = COc1ccc(S(=O)(=O)NC2(C)COC2)cc1C(=O)Nc1ccccc1Cl [Compound 58]
Q = COc1ccc(S(=O)(=O)N[C@H]2CCOC2)cc1C(=O)Nc1cccc(F)c1OC [Compound 134]
R = COc1ccc(S(=O)(=O)N[C@H]2CCC[C@H]2O)cc1C(=O)Nc1ccccc1Cl [Compound 61a]
Exercise: Exam item: list the entries in increasing order of IC50. Output the labels ranked as instructed.
Key: R, P, Q
(R: 0.1 nM, P: 0.2 nM, Q: 0.5 nM)

1 = COc1ccc(S(=O)(=O)NC2CC(C)(C)C2)cc1C(=O)Nc1ccc(F)c(C)c1 [Compound 14]
2 = COc1ccc(S(=O)(=O)NC2CC[C@H](O)C2)cc1C(=O)Nc1ccc(F)c(C)c1 (stereo in doubt) [Compound 15a]
Exercise: Larger number for IC50: 1 , or 2 ? Write down the label attached to your selection.
Key: 1
(1: 14.6 nM, 2: 2 nM)

###

Target entity: 5HTR2B (Homo sapiens, UniProt P41595)
Sequence (P41595 whole entry): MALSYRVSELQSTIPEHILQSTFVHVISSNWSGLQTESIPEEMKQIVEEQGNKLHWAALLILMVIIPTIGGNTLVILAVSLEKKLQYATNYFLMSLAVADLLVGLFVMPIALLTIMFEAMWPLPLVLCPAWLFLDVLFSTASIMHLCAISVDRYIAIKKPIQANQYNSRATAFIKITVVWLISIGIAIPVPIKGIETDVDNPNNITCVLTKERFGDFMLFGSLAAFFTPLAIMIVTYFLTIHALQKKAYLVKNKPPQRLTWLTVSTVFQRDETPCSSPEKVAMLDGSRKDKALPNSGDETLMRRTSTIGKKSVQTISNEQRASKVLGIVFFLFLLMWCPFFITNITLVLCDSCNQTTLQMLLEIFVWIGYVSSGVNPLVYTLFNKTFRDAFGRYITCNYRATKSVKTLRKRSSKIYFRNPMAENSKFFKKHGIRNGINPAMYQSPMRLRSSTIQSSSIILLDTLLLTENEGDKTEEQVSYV
Experimental protocol: 5HTR2B antagonist activity, calcium mobilization assay in human Maverick/293 cells (serotonin as agonist)
Conditions used: intracellular calcium, emission 525 nm, read-out: Ca assay IC50
Endpoint: IC50 (nM)

COc1ccc(S(=O)(=O)N[C@H]2CCOC2)cc1C(=O)Nc1ccc(F)c(C)n1 ... 0.6
COc1ccc(S(=O)(=O)N[C@H]2CCOC2)cc1C(=O)Nc1ccc(Cl)cc1Cl ... 1.5
COc1ccc(S(=O)(=O)N[C@@H]2CC[C@H](O)C2)cc1C(=O)Nc1ccc(F)c(C(F)F)c1 (single isomer, unassigned) [Compound 33a] ... 0.4
COc1ccc(S(=O)(=O)N[C@H]2C[C@@H](O)C2)cc1C(=O)Nc1ccc(F)c(C)n1 ... 2.8

a = COc1ccc(S(=O)(=O)N[C@H]2C[C@H](O)C2)cc1C(=O)Nc1cc(F)ccc1Cl [Compound 146a]
b = COc1ccc(S(=O)(=O)NC2CCCC[C@H]2O)cc1C(=O)Nc1ccc(F)c(C)n1 (stereo in doubt) [Compound 28b]
Exercise: Larger number for IC50: a , or b ? Write down the label attached to your selection.
Key: b

1 = COc1ccc(S(=O)(=O)NC(C)CO)cc1C(=O)Nc1ccc(F)c(C)c1 (centres unmarked)
2 = COc1ccc(S(=O)(=O)N[C@H]2CCNC2)cc1C(=O)Nc1ccccc1Cl
Exercise: Larger number for IC50: 1 , or 2 ? Write down the label attached to your selection.
Key: 1
(1: 4.5 nM, 2: 0.1 nM)

###

Target entity: 5HTR2B (Homo sapiens)
Experimental protocol: 5HTR2B antagonist activity, calcium mobilization assay in human Maverick/293 cells (serotonin as agonist)
Conditions used: intracellular calcium, emission 525 nm, read-out: Ca assay IC50
Endpoint: IC50 (nM)

COc1ccc(S(=O)(=O)N[C@H]2CCOC2)cc1C(=O)Nc1c(F)cc(C#N)cc1F [Compound 80] ... 574
COc1ccc(S(=O)(=O)NC2(C(F)(F)F)CC2)cc1C(=O)Nc1ccc(F)c(C)n1 [Compound 168] ... 3.9
COc1ccc(S(=O)(=O)NCC(O)C(F)(F)F)cc1C(=O)Nc1ccc(F)cc1 (single isomer, unassigned) [Compound 44b] ... 3.2

I = COc1ccc(S(=O)(=O)NC2COC2)cc1C(=O)Nc1ccc(F)c(C)c1 [Compound 5]
II = COc1ccc(S(=O)(=O)N[C@H]2CCNC2)cc1C(=O)Nc1ccc(F)cc1F [Compound 182]
Exercise: Larger number for IC50: I , or II ? Write down the label attached to your selection.
Key: I
(I: 4.2 nM, II: 0.3 nM)

###

Target entity: 5HTR2B (Homo sapiens)
Experimental protocol: 5HTR2B antagonist activity, calcium mobilization assay in human Maverick/293 cells (serotonin as agonist)
Conditions used: intracellular calcium, emission 525 nm, read-out: Ca assay IC50
pIC50: −log10 of the molar value.
Endpoint: pIC50

[2H]C([2H])([2H])Oc1ccc(S(=O)(=O)N[C@H]2CCOC2)cc1C(=O)Nc1ccc(F)c(C)n1 [Compound 194] ... 8.96

P = COc1ccc(S(=O)(=O)N[C@H]2CCOC2)cc1C(=O)Nc1cc(F)c(F)cc1F [Compound 74]
Q = CCCOc1ccc(S(=O)(=O)N[C@H]2CCOC2)cc1C(=O)Nc1ccc(F)c(C)n1 [Compound 199]
R = COCC(C)NS(=O)(=O)c1ccc(OC)c(C(=O)Nc2ccc(F)c(C(F)F)c2)c1 (single isomer, unassigned) [Compound 32a]
Exercise: Kindly order the items shown according to pIC50, from the highest value down. Output the labels ranked as instructed.
Key: P, R, Q

###

Target entity: 5HTR2B (Homo sapiens)
Construct: host or cells: human Maverick/293 cells
Experimental protocol: 5HTR2B antagonist activity, calcium mobilization assay in human Maverick/293 cells (serotonin as agonist)
Type: cell-based
Conditions used: intracellular calcium, emission 525 nm, read-out: Ca assay IC50
Protocol: The 5HTR2B antagonist activity was measured using human Maverick/293 cells in a calcium mobilization assay. […] Intracellular calcium concentration is recorded for 80 seconds by monitoring an emission at a wavelength of 525 nm with an excitation wavelength of 485 nm. Inhibition efficiency of the cell line was determined following the equation: % Inhibition=100%−(D−B)/(S−B)*100%. […]
Endpoint: IC50 (nM)

// solved cases for IC50 follow
COc1ccc(S(=O)(=O)NC(C)CC#N)cc1C(=O)Nc1ccc(F)c(C)c1 (single isomer, unassigned) [Compound 11a] ... 68
COc1ccc(S(=O)(=O)N[C@H]2C[C@H](C)C2)cc1C(=O)Nc1ccc(F)c(C)c1 ... 6.9

1 = COc1ccc(S(=O)(=O)N[C@H]2CCOC2)cc1C(=O)Nc1ccc(F)c(F)c1
2 = COc1cc(F)c(S(=O)(=O)N[C@H]2CCOC2)cc1C(=O)Nc1ccc(F)c(C)c1
3 = COc1ccc(S(=O)(=O)N[C@H]2CCOC2)cc1C(=O)Nc1ncc(Cl)cc1F
Exercise: Exam item: list the entries in increasing order of IC50. Output the labels ranked as instructed.
Key: 1, 2, 3

1 = COc1ccc(S(=O)(=O)N[C@H]2CCOC2)cc1C(=O)Nc1cccc2c1cnn2C
2 = COc1ccc(S(=O)(=O)N[C@@H]2CC[C@H](O)C2)cc1C(=O)Nc1ccc(F)cc1 (single isomer, unassigned) [Compound 45a]
Exercise: Which has the smaller recorded IC50, 1 or 2 ? Write down the label attached to your selection.
Key: 2
(2: 1.3 nM, 1: 10 nM)

###

Target entity: UniProt:P41595
Experimental protocol: 5HTR2B antagonist activity, calcium mobilization assay in human Maverick/293 cells (serotonin as agonist)
Conditions used: intracellular calcium, emission 525 nm, read-out: Ca assay IC50
pIC50: −log10 of the molar value.
Endpoint: pIC50

// solved cases for pIC50 follow
[2H]C([2H])([2H])Oc1ccc(S(=O)(=O)N[C@H]2CCOC2)cc1C(=O)Nc1ccc(F)c(C)c1 ... 8.96
COc1ccc(S(=O)(=O)N[C@H]2C[C@H](O)C2)cc1C(=O)Nc1ccc(Cl)cc1F [Compound 143a] ... 9.15
COc1ccc(S(=O)(=O)N[C@H]2CCOC2)cc1C(=O)Nc1ccc(C#N)c(Cl)c1 ... 5.71
COc1ccc(S(=O)(=O)NC2CN(C)C2)cc1C(=O)Nc1ccc(F)c(C)n1 ... 7.24
COc1ccc(S(=O)(=O)N[C@H]2C[C@@H](O)C2)cc1C(=O)Nc1ccc(F)c(C(F)F)c1 [Compound 142b] ... 8.96

I = COc1ccc(S(=O)(=O)N[C@H]2CCOC2)cc1C(=O)Nc1ccc(F)cc1C
II = COc1ccc(S(=O)(=O)N[C@H]2C[C@@H](O)C2)cc1C(=O)Nc1ccc(F)cn1
Exercise: Which has the smaller recorded pIC50, I or II ? Write down the label attached to your selection.
Key: II
(II: 7.28, I: 8.89)
